Quick list: concentration at 72 h per entry.
assay_protocol: Drug concentration at steady state in mouse brain assessed as total compound level in brain homogenates at 210 mg/kg/day, po measured after 3 days
Assay type: ADME, organism-based
Set-up: route oral
cond: brain homogenate, read-out: Css
Write it as a number; the unit µM goes unstated.

[
  {
    "smiles_representation": "Cc1cccc(Nc2nc(-c3ccc(-c4ccccc4)cc3)cs2)n1",
    "measured_parameter": "concentration at 72 h",
    "recorded_value": 37.4
  }
]

Reported concentration at 72 h for `Cc1ccc(Nc2nc(-c3cc(-c4ccccc4)no3)cs2)nc1` : what is it? 12.6

Reported concentration at 72 h for `Cc1cccc(Nc2nc(-c3cc4ccccc4o3)cs2)n1` : what is it? 3.23
